Where these numbers come from: patent US20250282866A1

EXPERIMENTAL_TARGET: T1, human TREM2 (human, UniProt Q9NZC2 19-174, limits assumed)
T1 construct: also called triggering receptor expressed on myeloid cells 2
T1 sequence: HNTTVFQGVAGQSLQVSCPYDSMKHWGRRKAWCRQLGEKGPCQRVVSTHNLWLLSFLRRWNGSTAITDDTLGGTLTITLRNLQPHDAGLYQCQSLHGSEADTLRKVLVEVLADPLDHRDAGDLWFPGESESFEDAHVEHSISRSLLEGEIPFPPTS
PROTOCOL_NOTES: 2nd screen 100 nM
MEASUREMENT_LABEL: Binding Signal (fold over 6E7 Parental antibody)

BINDER	OBSERVED_MEASUREMENT
V20 (antibody, V domains shown) VH: EVQLVQSGAEVKKPGESLKISCKGSGYSFTSYWIAWVRQMPGKGLEWMGRIYPGDSDTRYSPSFQGQVTISADKSISTAYLQWSSLKASDTAMYFCARQRTFYYDSSDYFDYWGQGTLVTVSS VL: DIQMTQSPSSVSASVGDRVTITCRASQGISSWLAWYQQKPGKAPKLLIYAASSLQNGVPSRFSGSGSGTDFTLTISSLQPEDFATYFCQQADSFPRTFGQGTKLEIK	0.52 fold
V70 (antibody, V domains shown) VH: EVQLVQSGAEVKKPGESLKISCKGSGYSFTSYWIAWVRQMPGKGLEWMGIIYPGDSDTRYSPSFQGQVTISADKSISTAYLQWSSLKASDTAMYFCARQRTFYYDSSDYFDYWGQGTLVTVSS VL: DIQMTQSPSSVSASVGDRVTITCRASQGISSWLAWYQQKPGKAPKLLIYAAGSLQNGVPSRFSGSGSGTDFTLTISSLQPEDFATYFCQQADSFPRTFGQGTKLEIK	0.84 fold
